Consider the following molecules and their measured composite z-score readings.
# target_of_assay: Concanavalin-A (Canavalia ensiformis)
# experiment_description: ConA small-molecule binders, primary screen, artefact control for SMM control protein annotation, biochemical, small-molecule microarray, Alexa647 label, 635 nm (AID 1127);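 also: z combines 667 nm emission intensity with signal-to-noise across three replicate slides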
# particulars: ConA-A647 binding fluorescence, higher = more signal
Would you mind answering with just the numeric figure?

molecule | composite z-score
C=C(C)[C@@H]1CC=C(C(O)C2C=CC3C(=O)N(c4ccccc4)C(=O)C3N2Nc2ccccc2)CC1 (some centres undefined) | 1.13
COCCOC(=O)N1C(=O)[C@@]2(c3cc(C#CCNC(N)=O)ccc31)[C@H](C(=O)N1CCN(c3ncccn3)CC1)[C@H]1C(=O)O[C@H](c3ccccc3)[C@H](c3ccccc3)N1[C@@H]2c1ccc(OCCO)cc1 | 1
CC[C@@H]1C=C(C(=O)O)[C@H](c2ccc(Br)cc2)N1S(=O)(=O)c1ccc(C)cc1 | 0.882

# query: composite z-score | item CCCCN1CC=CC23O[C@@H]4C=CCCOC(=O)C4[C@H]2C(=O)N(CCCCCCO)[C@@H]3C1=O (some centres undefined) | system: Concanavalin-A (Canavalia ensiformis)
-0.254

Data credit: PubChem BioAssay
